B1: VH:VL chains; a variant is named by its letters at X, in order (parent)
chain 1: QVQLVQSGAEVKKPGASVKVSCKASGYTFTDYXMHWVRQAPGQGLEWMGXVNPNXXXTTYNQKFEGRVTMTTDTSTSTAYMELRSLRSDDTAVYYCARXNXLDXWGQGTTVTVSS
chain 2: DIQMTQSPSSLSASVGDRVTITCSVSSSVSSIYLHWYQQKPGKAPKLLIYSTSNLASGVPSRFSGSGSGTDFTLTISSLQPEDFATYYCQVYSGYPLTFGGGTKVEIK

variants of: B1; experiment: yeast display scFab, FACS + sequencing; conditions: with MET
Some of the results follow. How many sequences the whole screen found active is unknown.
observable: antigen binding call

Reference set (8 entries):
{"variant_key": "YRERTAAV", "antigen binding call": "no binding"}
{"variant_key": "YTGKSVAV", "antigen binding call": "no binding"}
{"variant_key": "DAGKSDWY", "antigen binding call": "no binding"}
{"variant_key": "AETKGDGA", "antigen binding call": "no binding"}
{"variant_key": "YKRRDSVD", "antigen binding call": "binds"}
{"variant_key": "YRGKSAAV", "antigen binding call": "binds"}
{"variant_key": "YAARAALD", "antigen binding call": "no binding"}
{"variant_key": "YREGDAAD", "antigen binding call": "no binding"}

Please look at the items below and tell me antigen binding call for each one, in order.
1. VRGRGYAA
2. YKRGSFVD
3. YAEESDGS
4. YRKRGAGA
5. YRKRGAAA
6. DEGGTSGV
7. VTETGSLV

Data returned:
["binds", "no binding", "no binding", "binds", "binds", "no binding", "no binding"]

Hello, I would appreciate it if you could give antigen binding call for each entry below.
1. FKGRGFGV
2. FARGGSAD
3. FRRRGSAD
4. YRGRTAAV
5. YKTGDSVD
6. YKGRGYVA

Data returned:
1. no binding
2. no binding
3. binds
4. binds
5. binds
6. no binding

Data request: # return recorded antigen binding call for input YRGRGYAA
Data returned: binds
